Tested on: CASKI
Experiment: Primary qHTS to identify gynecologic anti-cancer compounds using libraries of approved drugs and bioactive compounds (AID 1345084); also: nearly all actives have a fitted effect of over 55% in size
Details: Gynecologic cancer cell panel viability, ATPlite luminescence, 48 h; series mostly up to 57.5 µM
Records with an inconclusive call do not appear. Calls of active or inactive are those of the source. Calls follow the shape of the dose curve; as a rule, active = well fitted cell-killing curve with a large enough effect; inconclusive = small, poorly fitted or top-dose-only effect, or effect the other way; inactive = flat fitted curve, though single readings scatter. *1 amine or outer side, *2 acyl side, *3 side chain or, on linkers, in order; H or OH if unused. Where a SMILES comes first, the peptide text is derived from it. [ ]: non-standard residue; d: D form. X5 = CC(CC(O[*:1])C(=O)[*:2])C(=O)O; NMeV = CN[CH](C(=O)O)C(C)C; NMeA = CN[CH](C)C(=O)O; βAla = NCCC(=O)O
Lab note: assign the record to one of label 1 = active, label 0 = inactive

Input: Name the outcome recorded for CC1=CC2(O)/C=C/C(C)(O)C(O)C(O)/C=C/C(=O)OC23C(=O)NC(CC(C)C)C3C1C (stereo unspecified) in the assay.
Output: label 0

Input: Same for CC(=O)O[C@H]1CC[C@H]2[C@@H]3CC[C@H]4CC(=O)C=C(C)[C@]4(C)[C@H]3CC[C@]12C
Output: label 0

Input: Same for C=C1[C@@H](O)[C@]2(O)OC[C@]34C2[C@]2(C)C(C[C@H]3OC(=O)[C@H](O)[C@@]14O)C(C)=CC(=O)[C@H]2O (stereo partly specified)
Output: label 0

Input: Same for CCCCCn1cc(C(=O)Oc2cccc3cccnc23)c2ccccc21
Output: label 0

Input: Same for OCc1nnc2n1-c1ccc(Cl)cc1C(c1ccccc1Cl)=NC2
Output: label 0

Input: Same for C=C1[C@@H](C)[C@H]2[C@H](Cc3ccccc3)NC(=O)[C@]23OC(=O)/C=C/C(=O)CCC[C@@H](C)C/C=C/[C@H]3[C@@H]1O
Output: label 1

Input: Same for C[C@H]1CCC/C=C/C2C[C@H](O)C[C@H]2[C@H](O)/C=C/C(=O)O1 (stereo partly specified)
Output: label 1

Input: Same for C=C1C[C@]2(O)[C@@]3(C)CCC(=O)C(C)(C)C3=C(O)C(=O)[C@@]2(C)[C@@H]2C(=O)O[C@@](C)(C(=O)OC)C(=O)[C@@]12C
Output: label 0

Input: Same for CC(=O)OC[C@]12C[C@H](OC(=O)CC(C)C)C(C)=C[C@H]1O[C@@H]1[C@H](O)[C@@H](OC(C)=O)[C@@]2(C)[C@@]12CO2
Output: label 1

Input: Same for CC[C@@H]1C[C@H]2CC[C@H](O2)[C@H](C)C(=O)O[C@@H](C)C[C@@H]2CC[C@@H](O2)[C@@H](C)C(=O)O[C@H](CC)C[C@H]2CC[C@H](O2)[C@H](C)C(=O)O[C@@H](C)C[C@@H]2CC[C@@H](O2)[C@@H](C)C(=O)O1
Output: label 1

Input: Same for CCCCCCC1C(=O)O[C@H](C)[C@H](NC(=O)c2cccc(NC=O)c2O)C(=O)O[C@@H](C)[C@@H]1OC(=O)CC(C)C (stereo partly specified)
Output: label 1

Input: Same for CCC1CC2CN3CCc4c([nH]c5ccccc45)C(C(=O)OC)(C2)C13 (stereo unspecified)
Output: label 0

Input: Same for CC(C)[C@H]1OC(=O)[C@H](Cc2ccccc2)N(C)C(=O)[C@@H](C(C)C)OC(=O)[C@H](Cc2ccccc2)N(C)C(=O)[C@@H](C(C)C)OC(=O)[C@H](Cc2ccccc2)N(C)C1=O
Output: label 0

Input: Same for CC(=O)N1N=C(c2ccc(N)cc2)c2cc3c(cc2C[C@H]1C)OCO3
Output: label 0

Input: Same for C[N@@+]1(CC2CC2)CC[C@]23c4c5ccc(O)c4O[C@H]2C(=O)CC[C@@]3(O)[C@H]1C5
Output: label 0

Input: Same for CCOP(=O)(OCC)Oc1ccc2c(C)cc(=O)oc2c1
Output: label 0

Input: Same for Cc1ccc(Cn2nc(C(=O)N[C@@H]3C(C)(C)[C@@H]4CC[C@@]3(C)C4)cc2-c2ccc(Cl)c(C)c2)cc1
Output: label 0

Input: Same for CC[C@@H]1C[C@H]2CC[C@H](O2)[C@H](C)C(=O)O[C@@H](C)C[C@@H]2CC[C@@H](O2)[C@@H](C)C(=O)O[C@H](C)C[C@H]2CC[C@H](O2)[C@H](C)C(=O)O[C@@H](C)C[C@@H]2CC[C@@H](O2)[C@@H](C)C(=O)O1
Output: label 1

Input: Same for CCC(C)C1NC(=O)C2CCCN2C(=O)C(CC(C)C(=O)O)OC(=O)CCNC(=O)C(C)N(C)C(=O)C(C(C)C)N(C)C1=O (stereo unspecified) (cyclo([X5]PI[NMeV][NMeA][βAla]); configuration not given here)
Output: label 0

Input: Same for CC1=C[C@H]2O[C@@H]3C[C@H]4OC(=O)/C=C/C=C/C(=O)OCC/C(C)=C/C(=O)OC[C@@]2(CC1)[C@]4(C)[C@]31CO1
Output: label 1

Input: Same for CCCCCn1cc(C(=O)Cc2ccccc2OC)c2ccccc21
Output: label 0

Input: Same for CC(=O)O[C@H]1CC[C@@]2(CI)C(=CC[C@@H]3[C@@H]2CC[C@]2(C)C(=O)CC[C@@H]32)C1
Output: label 0

Input: Same for COc1cc(N2CCN(C)CC2)ccc1N
Output: label 0

Input: Same for CCC1(O)CCC2C3CCC4=CC(=O)CCC4C3CCC21CC (stereo unspecified)
Output: label 0

Input: Same for COC(=O)[C@]12CCCC(C)(C)C1CCc1cc(C(C)C)c(O)c(O)c12 (stereo partly specified)
Output: label 0

Input: Same for C[C@]12CC[C@@H](O)C[C@@H]1CC[C@@H]1[C@@H]2CC[C@]2(C)C(=O)[C@@H](Br)C[C@@H]12
Output: label 0

Input: Same for C=C(C)[C@@]12O[C@@H]1[C@@]1(C)C(=C[C@H]2O)CC[C@@H](O)[C@@H]1C
Output: label 0

Input: Same for Cc1cccc(NC(=O)NC2N=C(c3ccccc3)c3ccccc3N(CC(=O)c3ccccc3C)C2=O)c1 (stereo unspecified)
Output: label 0

Input: Same for Cc1ccccc1C1=CCN(C)CC1
Output: label 0

Input: Same for NC(=O)c1ncn2c1CN=C(c1ccccc1Br)c1cc(F)ccc1-2
Output: label 0

Input: Same for CC1CCCC(=O)CCC/C=C/c2cc(O)cc(O)c2C(=O)O1 (stereo unspecified)
Output: label 0
